System: Mus musculus
ASSAY_REMARKS: Antiulcer activity in indomethacin-induced Balb/c mouse model of gastric ulcer assessed as mean ulcer index at 50 mg/kg, po pre-administered with compound for 30 mins followed by indomethacin administration and measured after 4 hrs (reference value: 52.5 +/- 1.4)
Type: functional
RUN_PARAMETERS: time 4.5 hrs
READOUT: UI
The answer should be a number; do not append a unit.

| CPD_SMILES | UI |
| --- | --- |
| COc1ccc2[nH]cc(-c3cc(-c4ccccc4)oc3-c3ccccc3)c2c1 | 9 |
| Oc1ccc2[nH]cc(-c3cc(-c4ccccc4)oc3-c3ccccc3)c2c1 | 11.5 |
| c1ccc(-c2cc(-c3c(-c4ccccc4)[nH]c4ccccc34)c(-c3ccccc3)o2)cc1 | 18.25 |

Which UI is reported for this compound? "COc1cccc2c1c(-c1cc(-c3ccccc3)oc1-c1ccccc1)cn2C"
23.25

Give the measured UI of "Oc1ccccc1-c1[nH]c2ccccc2c1-c1cc(-c2ccccc2)oc1-c1ccccc1" .
14.5

What measured UI goes with "COc1ccc2[nH]cc(-c3cc(-c4ccccc4)oc3-c3ccccc3)c2c1OC" ?
13.5

Consider the compound "c1ccc(-c2cc(-c3c[nH]c4ccccc34)c(-c3ccccc3)o2)cc1" and give its measured UI.
20.2

Query: UI; subject: "COc1cccc2[nH]cc(-c3cc(-c4ccccc4)oc3-c3ccccc3)c12"
2.5

---

SYSTEM_NAME: Prostaglandin G/H synthase 2 (Homo sapiens)
Sequence (P35354 whole entry): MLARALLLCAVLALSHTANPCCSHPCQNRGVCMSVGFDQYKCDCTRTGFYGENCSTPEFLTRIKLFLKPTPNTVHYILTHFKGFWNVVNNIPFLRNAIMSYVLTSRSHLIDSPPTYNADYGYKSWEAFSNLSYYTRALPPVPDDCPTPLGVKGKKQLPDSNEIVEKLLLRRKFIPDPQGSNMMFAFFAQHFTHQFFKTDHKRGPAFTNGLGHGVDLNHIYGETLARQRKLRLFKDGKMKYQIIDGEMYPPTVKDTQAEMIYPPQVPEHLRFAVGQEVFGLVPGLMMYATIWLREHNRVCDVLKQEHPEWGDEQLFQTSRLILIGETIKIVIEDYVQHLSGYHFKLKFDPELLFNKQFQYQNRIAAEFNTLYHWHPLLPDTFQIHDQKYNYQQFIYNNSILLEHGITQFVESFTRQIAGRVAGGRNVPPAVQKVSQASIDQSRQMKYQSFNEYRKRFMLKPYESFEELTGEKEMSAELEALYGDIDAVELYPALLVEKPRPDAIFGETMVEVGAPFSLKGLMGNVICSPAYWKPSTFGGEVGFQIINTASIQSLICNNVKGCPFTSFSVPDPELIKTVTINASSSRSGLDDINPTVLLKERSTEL
ASSAY_REMARKS: Inhibition of COX2 (unknown origin) preincubated with compound for 5 mins followed by substrate addition and measured after 5 mins by fluorescence spectrophotometer analysis
READOUT: IC50

Which value of IC50 has been reported for "COc1cccc2[nH]cc(-c3cc(-c4ccccc4)oc3-c3ccccc3)c12" in the records?
> 100 µM

---

ASSAY_REMARKS: AUC in Sprague-Dawley rat at 250 mg/kg, po administered via gavage by HPLC analysis
Assay type: ADME, organism-based
Design: dose 250 mg/kg, route po
RUN_PARAMETERS: in vivo
READOUT: AUC (µg·h/mL)
Note: unit µg·h/mL is implicit; provide only the numeric part.

Entry under review: "COc1cccc2[nH]cc(-c3cc(-c4ccccc4)oc3-c3ccccc3)c12" . Reported AUC?
1270

Data provenance is ChEMBL document CHEMBL5331105.
